Source listed as patent US20170298051A1.

Target: AdipoR1 (Homo sapiens)
Sequence (Q96A54 1-375): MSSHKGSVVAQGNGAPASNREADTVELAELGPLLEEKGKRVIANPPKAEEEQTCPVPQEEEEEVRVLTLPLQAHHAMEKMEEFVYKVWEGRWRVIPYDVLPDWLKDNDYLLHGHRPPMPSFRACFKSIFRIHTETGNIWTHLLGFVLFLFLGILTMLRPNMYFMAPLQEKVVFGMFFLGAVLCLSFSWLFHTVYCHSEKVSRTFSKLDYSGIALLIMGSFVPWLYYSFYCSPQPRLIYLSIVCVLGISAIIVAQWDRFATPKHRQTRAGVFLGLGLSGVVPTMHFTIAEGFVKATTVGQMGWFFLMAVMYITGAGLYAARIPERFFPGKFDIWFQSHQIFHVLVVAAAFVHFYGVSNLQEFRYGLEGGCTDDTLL
Experiment: Measurement of AMPK phosphorylation ability (Assay 2), HEK 293T cells with unrelated or AdipoR1 siRNA
Type: cell-based
Design: HEK 293T cells (ATCC; CRL-3216, medium; host or cells: HEK 293T
Conditions: unrelated siRNA
Would you mind labelling by pAMPK/AMPK (ratio) siRNA, unrelated siRNA? At or over 3 ratio is Satisfied, under is Not satisfied.

> print(dat)
                                   molecule   target.or.test.system  qualitative.label
1  Cc1ccccc1CN1CCC(NC(=O)COc2ccc(Oc3ccccn3)cc2)CC1 [Compound 46]  AdipoR1 (Homo sapiens)      Not satisfied
2  NC(=O)c1ccc(OCC(=O)NC2CCN(Cc3ccc(Cl)c(Cl)c3)CC2)cc1 [Compound 19]  AdipoR1 (Homo sapiens)          Satisfied
3  O=C(COc1ccc(C(F)(F)F)cc1)NC1CCN(C(=O)c2ccccc2F)CC1 [Compound 34]  AdipoR1 (Homo sapiens)      Not satisfied
4  CC(C)c1ccc(CN2CCN(C(=O)CCNC(=O)c3ccc([N+](=O)[O-])cc3)CC2)cc1 [Compound 64]  AdipoR1 (Homo sapiens)          Satisfied
5  O=C(COc1ccc(Oc2ccccn2)cc1)NC1CCN(Cc2ccc(F)cc2)CC1 [Compound 48]  AdipoR1 (Homo sapiens)          Satisfied

* * *

target: AdipoR1 (Mus musculus, UniProt Q91VH1); construct: C2C12 cells (ATCC; CRL-1772, medium; host or cells: differentiated C2C12; assay: Measurement of AMPK phosphorylation ability (Assay 1), differentiated C2C12 cells, Western blotting; assay type: cell-based; settings: 10 μM, 10 minutes
Sequence (Q91VH1 whole entry): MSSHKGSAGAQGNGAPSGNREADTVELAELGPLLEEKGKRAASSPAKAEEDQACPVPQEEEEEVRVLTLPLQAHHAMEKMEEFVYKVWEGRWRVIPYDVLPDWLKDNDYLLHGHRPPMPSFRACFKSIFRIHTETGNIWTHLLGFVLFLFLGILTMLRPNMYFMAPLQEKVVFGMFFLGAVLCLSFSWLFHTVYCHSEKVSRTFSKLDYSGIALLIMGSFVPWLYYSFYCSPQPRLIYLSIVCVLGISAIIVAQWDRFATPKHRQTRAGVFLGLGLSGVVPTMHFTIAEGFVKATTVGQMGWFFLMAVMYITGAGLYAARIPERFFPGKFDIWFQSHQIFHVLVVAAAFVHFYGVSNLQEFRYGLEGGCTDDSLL
READOUT: pAMPK/AMPK (%)

> print(dat)
                              smiles.string  quantitative.result
1  COc1ccc(C(=O)N2CCN(Cc3ccc(C(F)(F)F)cc3)CC2)cc1OC                89.56
2  COc1ccc(CN2CC[C@@]2(C)C(=O)NC2CCN(Cc3ccccc3)CC2)c2ccccc12                84.85
3  CCc1ccc(CN2CCC(Oc3ccc(C(=O)NCCOC)cc3Cl)CC2)cc1                89.26
4  CCOCCCNC(=O)c1ccc(OC2CCN(CC(C)(C)C)CC2)c(Cl)c1                81.28
5  COCc1ccc(CN2CCC(Oc3ccc(C(=O)NC4CCCC4)cc3Cl)CC2)o1                99.10
